# system_tested: HDAC5 (Homo sapiens, UniProt Q9UQL6)
# Sequence (Q9UQL6 whole entry, species assumed): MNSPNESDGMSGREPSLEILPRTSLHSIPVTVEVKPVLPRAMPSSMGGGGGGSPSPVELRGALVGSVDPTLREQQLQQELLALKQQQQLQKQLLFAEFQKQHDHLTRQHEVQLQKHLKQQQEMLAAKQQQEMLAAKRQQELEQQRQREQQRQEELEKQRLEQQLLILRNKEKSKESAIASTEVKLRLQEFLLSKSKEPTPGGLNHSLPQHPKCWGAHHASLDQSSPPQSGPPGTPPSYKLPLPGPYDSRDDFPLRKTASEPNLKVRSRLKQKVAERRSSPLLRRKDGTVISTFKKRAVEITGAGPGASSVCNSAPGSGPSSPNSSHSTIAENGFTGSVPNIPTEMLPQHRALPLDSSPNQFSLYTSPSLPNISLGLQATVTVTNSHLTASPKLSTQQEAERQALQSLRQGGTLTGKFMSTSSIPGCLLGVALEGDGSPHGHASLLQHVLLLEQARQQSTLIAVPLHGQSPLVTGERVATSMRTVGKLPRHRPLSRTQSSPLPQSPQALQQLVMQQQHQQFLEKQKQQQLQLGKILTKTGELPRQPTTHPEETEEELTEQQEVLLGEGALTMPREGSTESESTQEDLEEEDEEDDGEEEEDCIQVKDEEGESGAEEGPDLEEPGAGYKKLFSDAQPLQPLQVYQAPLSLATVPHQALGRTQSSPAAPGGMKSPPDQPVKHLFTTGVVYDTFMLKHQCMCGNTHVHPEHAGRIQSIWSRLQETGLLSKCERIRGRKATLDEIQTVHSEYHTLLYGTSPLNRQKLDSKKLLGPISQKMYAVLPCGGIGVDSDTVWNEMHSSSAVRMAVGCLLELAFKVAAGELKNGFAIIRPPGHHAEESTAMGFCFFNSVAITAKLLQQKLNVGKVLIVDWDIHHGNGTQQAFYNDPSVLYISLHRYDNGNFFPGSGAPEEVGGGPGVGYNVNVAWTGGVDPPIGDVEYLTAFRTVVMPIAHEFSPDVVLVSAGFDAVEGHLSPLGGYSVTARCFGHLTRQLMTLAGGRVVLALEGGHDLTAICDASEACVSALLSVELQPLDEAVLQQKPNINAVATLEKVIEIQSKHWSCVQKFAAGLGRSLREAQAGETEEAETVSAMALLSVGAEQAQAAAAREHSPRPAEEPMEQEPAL
Threshold 5 µM. IC50 below it: T. IC50 at it or above: F.

[[record]]
compound = "CC1(C)CC(=O)c2c(C(F)(F)F)nn(Cc3ccc(C(=O)NO)cc3)c2C1"
label_value = "F"

[[record]]
compound = "CN1CCN(CC2CCc3c(c4cc(F)ccc4n3Cc3ccc(C(=O)NO)cc3)C2=O)CC1 (centres unmarked)"
label_value = "T"

[[record]]
compound = "O=C(NO)c1ccc(Cn2c3c(c4ccccc42)C(=O)N(CCN2CCOCC2)CC3)cc1"
label_value = "T"

[[record]]
compound = "CN1CCN(C(=O)N(CCCCCCC(=O)NO)c2ccc(-c3ccc4cnn(C)c4c3)cc2)CC1 [CKD-581, reference compound]"
label_value = "T"


* * *

Each item that follows carries a reported IC50.
# system_tested: HDAC11 (Homo sapiens, UniProt Q96DB2)
# Sequence (Q96DB2 whole entry, species assumed): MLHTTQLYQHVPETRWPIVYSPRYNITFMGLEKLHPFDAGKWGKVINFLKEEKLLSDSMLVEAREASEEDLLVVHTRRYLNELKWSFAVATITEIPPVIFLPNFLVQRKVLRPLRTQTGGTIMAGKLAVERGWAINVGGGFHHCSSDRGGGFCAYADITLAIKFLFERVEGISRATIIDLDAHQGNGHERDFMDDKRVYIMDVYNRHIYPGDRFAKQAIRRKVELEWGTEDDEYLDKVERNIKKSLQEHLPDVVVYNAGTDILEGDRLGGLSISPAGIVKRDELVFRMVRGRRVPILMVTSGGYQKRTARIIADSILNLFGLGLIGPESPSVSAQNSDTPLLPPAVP
quantity_kind: IC50 (µM)

[[record]]
compound = "O=C(NO)c1ccc(Cn2c3c(c4ccccc42)C(=O)N(CCN2CCOCC2)CC3)cc1"
system_tested = "HDAC11 (Homo sapiens, UniProt Q96DB2)"
value = 5.53

[[record]]
compound = "CC1(C)CC(=O)c2c(n(Cc3ccc(C(=O)NO)cc3)c3ccccc23)C1"
system_tested = "HDAC11 (Homo sapiens, UniProt Q96DB2)"
value = 22.2

[[record]]
compound = "CC1(C)CC(=O)c2c(C(F)(F)F)nn(Cc3ccc(C(=O)NO)cc3)c2C1"
system_tested = "HDAC11 (Homo sapiens, UniProt Q96DB2)"
value = 33.9

[[record]]
compound = "O=C(NO)c1ccc(Cn2c3c(c4ccccc42)C(=O)C(CN2CCOCC2)CC3)cc1 (stereo not drawn)"
system_tested = "HDAC11 (Homo sapiens, UniProt Q96DB2)"
value = 37.5

[[record]]
compound = "CN1CCN(CC2CCc3c(c4cc(F)ccc4n3Cc3ccc(C(=O)NO)cc3)C2=O)CC1 (stereo not drawn)"
system_tested = "HDAC11 (Homo sapiens, UniProt Q96DB2)"
value = 11.1

[[record]]
compound = "CN1CCN(C(=O)N(CCCCCCC(=O)NO)c2ccc(-c3ccc4cnn(C)c4c3)cc2)CC1 [CKD-581, reference compound]"
system_tested = "HDAC11 (Homo sapiens, UniProt Q96DB2)"
value = 0.00152


* * *

Measured pIC50 of individual entries
# system_tested: Human recombinant HDAC1 (Homo sapiens)
# Construct: purchased Enzo Life Science Co. (named for the kit; assigned to the enzyme from the BML- catalogue prefix) BML-SE456
# Sequence (Q13547 whole entry): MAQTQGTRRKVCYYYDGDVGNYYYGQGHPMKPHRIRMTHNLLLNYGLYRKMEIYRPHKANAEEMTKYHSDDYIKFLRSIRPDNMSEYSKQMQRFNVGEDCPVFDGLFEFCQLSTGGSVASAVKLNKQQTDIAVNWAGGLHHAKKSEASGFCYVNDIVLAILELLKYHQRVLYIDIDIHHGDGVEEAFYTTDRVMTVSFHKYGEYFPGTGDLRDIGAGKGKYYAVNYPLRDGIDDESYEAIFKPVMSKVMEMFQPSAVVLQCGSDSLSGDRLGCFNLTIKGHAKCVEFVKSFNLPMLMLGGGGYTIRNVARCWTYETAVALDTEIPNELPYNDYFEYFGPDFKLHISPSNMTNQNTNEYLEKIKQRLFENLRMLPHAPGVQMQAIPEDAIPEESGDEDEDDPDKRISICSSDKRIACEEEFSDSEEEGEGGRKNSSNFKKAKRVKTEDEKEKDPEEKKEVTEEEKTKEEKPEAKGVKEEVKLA
# measurement_notes: HDAC enzyme activity test, HDAC1
# Assay type: biochemical
# experimental_parameters: Table 12; read-out: Inhibition ability (IC50) HDAC1
pIC50: −log10 of the molar value.
quantity_kind: pIC50

[[record]]
compound = "CC1(C)CC(=O)c2c(n(Cc3ccc(C(=O)NO)cc3)c3c(Cl)ccc(Cl)c23)C1"
value = 4.87

[[record]]
compound = "CC1(C)CC(=O)c2c(n(Cc3ccc(C(=O)NO)cc3)c3ccccc23)C1"
value = 5.37

[[record]]
compound = "CCN1CCN(CC2CCc3c(c4ccccc4n3CCCCCC(=O)NO)C2=O)CC1 (stereo not drawn)"
value = 5.92

[[record]]
compound = "CN1CCN(CC2C(=O)c3c(n(Cc4ccc(C(=O)NO)cc4)c4ccc(F)cc34)CC2(C)C)CC1 (stereo not drawn)"
value = 6.44

[[record]]
compound = "O=C(NO)c1ccc(Cn2c3c(c4ccccc42)C(=O)NCC3)cc1"
value = 5.45

[[record]]
compound = "O=C(NO)c1ccc(Cn2c3ccc(F)cc3c3c(=O)[nH]ccc32)cc1"
value = 5.61

[[record]]
compound = "CC1(C)CCc2c(c3ccccc3n2Cc2ccc(C(=O)NO)cc2)C1=O"
value = 5.57

[[record]]
compound = "CC1(C)CC(=O)c2c(n(CCCCCC(=O)NO)c3c(Cl)cc(Cl)cc23)C1"
value = 5.54

[[record]]
compound = "CN1CCN(CCN2CCc3c(c4cc(F)ccc4n3Cc3ccc(C(=O)NO)cc3)C2=O)CC1"
value = 5.09

[[record]]
compound = "Cc1c2c(n(Cc3ccc(C(=O)NO)cc3)c1C)CCC(CN1CCOCC1)C2=O (stereo not drawn)"
value = 5.22

[[record]]
compound = "Cc1nccn1CC1CCc2c(c3cc(F)ccc3n2Cc2ccc(C(=O)NO)cc2)C1=O (stereo not drawn)"
value = 5.29

[[record]]
compound = "O=C(NO)c1ccc(Cn2c3c(c4ccccc42)C(=O)CCC3)cc1"
value = 5.57

[[record]]
compound = "CC1(C)CC(=O)c2c(n(Cc3ccc(C(=O)NO)cc3)c3ccc(F)c(F)c23)C1"
value = 5.41

[[record]]
compound = "CC1(C)CC(=O)c2c(n(CCCCCC(=O)NO)c3cc(Br)ccc23)C1"
value = 7.01

[[record]]
compound = "O=C(NO)c1ccc(Cn2c3c(c4ccccc42)C(=O)C(CN2CCOCC2)CC3)cc1 (stereo not drawn)"
value = 5.51

[[record]]
compound = "Cc1nccn1CC1C(=O)c2c(n(Cc3ccc(C(=O)NO)cc3)c3ccccc23)CC1(C)C (stereo not drawn)"
value = 5.24

[[record]]
compound = "CC1(C)CC(=O)C2c3c(F)cccc3N(CCCCCC(=O)NO)C2C1 (stereo not drawn)"
value = 5.04

[[record]]
compound = "O=C(NO)c1ccc(Cn2c3c(c4cc(F)ccc42)C(=O)C(CN2CC(F)(F)C2)CC3)cc1 (stereo not drawn)"
value = 5.14

[[record]]
compound = "Cc1cn(Cc2ccc(C(=O)NO)cc2)c2c1C(=O)N(CCN1CCOCC1)CC2"
value = 5.57

[[record]]
compound = "O=C(NO)c1ccc(Cn2c3c(c4ccccc42)C(=O)C(CN2CCN(c4ccc(F)cc4)CC2)CC3)cc1 (stereo not drawn)"
value = 5.28

[[record]]
compound = "Cc1cc2c(n1CCCCCCC(=O)NO)CC(C)(C)CC2=O"
value = 6.34

[[record]]
compound = "CN1CCCN(CCN2CCc3c(c4cc(F)ccc4n3Cc3ccc(C(=O)NO)cc3)C2=O)CC1"
value = 5.10

[[record]]
compound = "O=C(NO)c1ccc(Cn2c3c(c4ccccc42)C(=O)C(CN2CCCCC2)CC3)cc1 (stereo not drawn)"
value = 5.55

[[record]]
compound = "CC1(C)CC(=O)c2c(n(CCCCCC(=O)NO)c3ccc(F)c(F)c23)C1"
value = 5.33

[[record]]
compound = "CC1(C)CC(=O)c2c(n(CCCCCC(=O)NO)c3ccc(F)cc23)C1"
value = 5.39

[[record]]
compound = "O=C(NO)c1ccc(Cn2c3c(c4cc(F)ccc42)C(=O)C(CN2CCOCC2)CC3)cc1 (stereo not drawn)"
value = 5.38

[[record]]
compound = "CC1(C)CC(=O)c2c(n(Cc3ccc(C(=O)NO)cc3)c3ccc(Br)cc23)C1"
value = 5.26

[[record]]
compound = "CC1(C)CC(=O)c2c(n(Cc3ccc(C(=O)NO)cc3)c3cccc(Br)c23)C1"
value = 5.24

[[record]]
compound = "CC1(C)CC(=O)c2c(n(CCCCCC(=O)NO)c3ccc(Br)cc23)C1"
value = 5.05

[[record]]
compound = "Cc1c2c(n(Cc3ccc(C(=O)NO)cc3)c1C)CC(C)(C)CC2=O"
value = 5.29

[[record]]
compound = "CN(C)CC1C(=O)c2c(n(Cc3ccc(C(=O)NO)cc3)c3ccccc23)CC1(C)C (stereo not drawn)"
value = 5.37

[[record]]
compound = "CC(C)N1CCN(CC2CCc3c(c4ccccc4n3Cc3ccc(C(=O)NO)cc3)C2=O)CC1 (stereo not drawn)"
value = 5.61

[[record]]
compound = "COCCN1CCN(CC2CCc3c(c4ccccc4n3Cc3ccc(C(=O)NO)cc3)C2=O)CC1 (stereo not drawn)"
value = 5.24


* * *

# system_tested: Human recombinant HDAC1 (Homo sapiens)
# Construct: purchased Enzo Life Science Co. (named for the kit; assigned to the enzyme from the BML- catalogue prefix) BML-SE456
# measurement_notes: HDAC enzyme activity test, HDAC1
# Format: biochemical
# experimental_parameters: data of Table 11; read-out: IC50 against HDAC1
pIC50: −log10 of the molar value.
quantity_kind: pIC50

[[record]]
compound = "O=C(NO)c1ccc(Cn2c3c(c4ccccc42)C(=O)C(CN2CCOCC2)CC3)cc1 (stereo not shown)"
quantity_kind = "pIC50"
value = 4.95


* * *

# system_tested: human recombinant HDAC6 (Homo sapiens, UniProt Q9UBN7)
# Construct: purchased Calibiochem Co. (so in the source) 382180
# Sequence (Q9UBN7 whole entry): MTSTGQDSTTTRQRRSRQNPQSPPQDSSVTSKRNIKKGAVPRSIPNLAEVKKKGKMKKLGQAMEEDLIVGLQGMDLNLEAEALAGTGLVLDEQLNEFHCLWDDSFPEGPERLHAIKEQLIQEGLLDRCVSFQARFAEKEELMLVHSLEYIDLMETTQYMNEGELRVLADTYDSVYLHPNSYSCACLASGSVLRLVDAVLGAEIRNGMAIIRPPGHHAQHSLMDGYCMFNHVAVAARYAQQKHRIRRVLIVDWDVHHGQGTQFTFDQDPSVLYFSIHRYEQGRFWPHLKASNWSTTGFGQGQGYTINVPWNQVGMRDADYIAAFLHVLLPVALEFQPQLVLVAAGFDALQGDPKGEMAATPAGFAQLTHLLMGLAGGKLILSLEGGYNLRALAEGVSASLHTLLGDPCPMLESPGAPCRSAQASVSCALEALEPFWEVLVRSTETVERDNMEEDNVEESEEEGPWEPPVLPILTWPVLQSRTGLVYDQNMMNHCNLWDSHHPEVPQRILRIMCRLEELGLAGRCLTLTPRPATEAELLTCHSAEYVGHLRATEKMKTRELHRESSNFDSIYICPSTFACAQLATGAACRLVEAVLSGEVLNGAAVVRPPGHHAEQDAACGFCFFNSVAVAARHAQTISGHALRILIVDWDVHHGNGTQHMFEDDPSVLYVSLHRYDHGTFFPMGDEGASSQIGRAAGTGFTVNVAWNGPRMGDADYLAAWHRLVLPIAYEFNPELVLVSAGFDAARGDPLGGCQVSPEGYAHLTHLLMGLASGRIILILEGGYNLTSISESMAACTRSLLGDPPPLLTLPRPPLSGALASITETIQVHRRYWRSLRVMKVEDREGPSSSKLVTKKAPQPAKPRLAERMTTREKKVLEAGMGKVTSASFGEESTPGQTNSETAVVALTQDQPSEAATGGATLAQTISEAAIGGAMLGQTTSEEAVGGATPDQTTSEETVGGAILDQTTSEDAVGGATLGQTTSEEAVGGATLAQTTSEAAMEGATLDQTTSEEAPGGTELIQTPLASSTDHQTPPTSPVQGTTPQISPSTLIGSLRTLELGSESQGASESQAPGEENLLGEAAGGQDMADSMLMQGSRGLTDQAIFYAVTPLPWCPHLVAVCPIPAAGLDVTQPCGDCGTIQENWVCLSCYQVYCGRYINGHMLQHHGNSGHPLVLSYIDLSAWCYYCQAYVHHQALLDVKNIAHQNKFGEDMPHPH
# measurement_notes: HDAC enzyme activity test, HDAC6
# Type: biochemical
# experimental_parameters: Table 12; read-out: Inhibition ability (IC50) HDAC6
pIC50: −log10 of the molar value.
quantity_kind: pIC50

[[record]]
molecule = "Cc1cn(Cc2ccc(C(=O)NO)cc2)c2c1C(=O)N(CCN1CCOCC1)CC2"
quantity_kind = "pIC50"
value = 6.88

[[record]]
molecule = "O=C(NO)c1ccc(Cn2c3c(c4ccccc42)C(=O)C(CN2CCN(c4ccc(F)cc4)CC2)CC3)cc1 (centres unmarked)"
quantity_kind = "pIC50"
value = 8.07

[[record]]
molecule = "CC(C)(C)OC(=O)N1CCN(CC2CCc3c(c4ccccc4n3Cc3ccc(C(=O)NO)cc3)C2=O)CC1 (centres unmarked)"
quantity_kind = "pIC50"
value = 7.74

[[record]]
molecule = "Cc1c2c(n(CCCCCC(=O)NO)c1C)CC(C)(C)CC2=O"
quantity_kind = "pIC50"
value = 6.99

[[record]]
molecule = "O=C(NO)c1ccc(Cn2c3c(c4ccccc42)C(=O)C(CN2CCN(C(=O)C4CC4)CC2)CC3)cc1 (centres unmarked)"
quantity_kind = "pIC50"
value = 7.82

[[record]]
molecule = "CC(C)N1CCN(CC2CCc3c(c4cc(F)ccc4n3Cc3ccc(C(=O)NO)cc3)C2=O)CC1 (centres unmarked)"
quantity_kind = "pIC50"
value = 7.34

[[record]]
molecule = "CC1(C)CC(=O)c2c(n(CCCCCCC(=O)NO)c3ccc(F)cc23)C1"
quantity_kind = "pIC50"
value = 8.38

[[record]]
molecule = "O=C(NO)c1ccc(Cn2c3c(c4ccccc42)C(=O)C(CN2CCCCC2)CC3)cc1 (centres unmarked)"
quantity_kind = "pIC50"
value = 8.00

